The reader will find reported absorbance ratio values listed item by item below.
target: T1, biotinylated Fc-fused monkey CD137 (monkey, biotin on the AviTag); assay: ELISA, 1 mM ADP, 0.010 ug/mL; design: reference not given here
T1 construct: also called cyCD137-Fc-BAP
T1 sequence (chain, as listed by the source limits assumed): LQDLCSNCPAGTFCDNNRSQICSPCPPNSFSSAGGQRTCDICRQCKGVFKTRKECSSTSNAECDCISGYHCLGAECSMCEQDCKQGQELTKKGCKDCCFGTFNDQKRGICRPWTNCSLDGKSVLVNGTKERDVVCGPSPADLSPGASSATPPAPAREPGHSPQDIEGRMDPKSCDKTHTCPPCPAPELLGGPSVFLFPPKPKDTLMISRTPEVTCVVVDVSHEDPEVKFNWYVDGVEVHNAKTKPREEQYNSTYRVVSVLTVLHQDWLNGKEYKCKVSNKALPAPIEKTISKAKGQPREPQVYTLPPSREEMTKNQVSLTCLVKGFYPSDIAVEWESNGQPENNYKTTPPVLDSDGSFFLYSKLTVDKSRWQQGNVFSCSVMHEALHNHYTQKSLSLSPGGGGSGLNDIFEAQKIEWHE
Please respond with just the number, no unit label.

dBBAT134-P253 (antibody, human IgG1, lambda, V domains shown) VH: EVQLVESGGDLVKPGGGLRLSCAASGFTFSSYTMNWVRQAPGKGLEWVSSISSRSNYADYADSVKGRFTISRDNAKNSLYLQMNSLRAEDTAVYYCARYGAKNEMNWVFDYWGQGTLVTVSS VL: QSALTQPPSASGSPGQTVTISCTGTSTDVGFYNYVSWYQQHPGKAPKLMIYEVSKRPSGVPDRFSGSKSGNTASLTVSGLQAEDEADYFCSSYTYDQQLMFGGGTKLTVLG :: 1

Please turn your attention to the following entry.
I have this binder here, dBBAT112-P253 (antibody, human IgG1, lambda, V domains shown) VH: EVQLVESGGDLVKPGGGLRLSCAASGFTFSTYTMNWVRQAPGKGLEWVSSISSRSNYKFYADSVKGRFTISRDNAKNSLYLQMNSLRAEDTAVYYCARFGVKNNMNWVFDYWGQGTLVTVSS VL: QSALTQPPSASGSPGQTVTISCTGTSSDVGFYNYVSWYQQHPGKAPKLMIYEVSKRPSGVPDRFSGSKSGNTASLTVSGLQAEDEADYFCSSYEYIESVLFGGGTKLTVLG , and I need its recorded absorbance ratio. 0.6
